Test system: HEK-293T
Measurement Description: Multiplex assay against HEK293T;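 on Population Tubulin-Different-Phenotype (%): share of the cells with healthy nuclei that show this phenotype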
Type: toxicity, cell-based
Assay Conditions: human, 48 h, 1 µM, compound concentration 1 uM, replicate 2
Quantity Measured: Population Tubulin-Different-Phenotype (%)
Please don't drop the unit; write it after the number.

Look over these answered cases.
[[record]]
molecule = "Cl.O=C(O)c1cc(-c2ccc(C3CCNCC3)cc2)c2ccc(-c3ccc(C(F)(F)F)cc3)cc2c1"
tested_system = "HEK-293T"
experimental_result = "9%"

[[record]]
molecule = "CCc1ccc(OCc2ccccc2C(=O)Nc2ccc3nc(C)cc(N)c3c2)cc1.Cl"
tested_system = "HEK-293T"
experimental_result = "84%"

[[record]]
molecule = "C[C@]12CC[C@@H]3c4ccc(O)cc4CC[C@H]3[C@@H]1CC[C@@H]2O [ESTRADIOL]"
tested_system = "HEK-293T"
experimental_result = "13%"

[[record]]
molecule = "CCc1nn(CCCN2CCN(c3cccc(Cl)c3)CC2)c(=O)n1CCOc1ccccc1.Cl [NEFAZODONE HYDROCHLORIDE]"
tested_system = "HEK-293T"
experimental_result = "49%"

[[record]]
molecule = "CNC(=O)Nc1ccc(-c2nc(N3CC4CCC(C3)O4)c3cnn(C4CCC5(CC4)OCCO5)c3n2)cc1"
tested_system = "HEK-293T"
experimental_result = "61%"


Fill in Population Tubulin-Different-Phenotype (%) for each of the 3 molecules listed.
1. O=c1cc(N2CCOCC2)oc2c(-c3cccc4c3sc3ccccc34)cccc12
2. CC1=C(C(=O)Nc2cc3cn[nH]c3cc2F)C(c2ccc(C(F)(F)F)cc2)CC(=O)N1 (stereo not drawn)
3. CN1CCN(Cc2ccc(Nc3ncc(Cl)c(Nc4ccccc4S(=O)(=O)N(C)C)n3)cc2)CC1 [DUBERMATINIB]

1. 26%
2. 15%
3. 17%

====

Kindly state Population Pyknosed Nuclei (%) for each of the entries shown.
Tested on: U2OS
Measurement Description: Multiplex assay against U2OS
Format: toxicity, cell-based
Assay Conditions: human, 48 h, 1 µM, compound concentration 1 uM, replicate 1
One number for each entry, in %.

Study these solved cases before continuing.
[[record]]
chemical_structure = "CCCSc1nc(N[C@@H]2C[C@H]2c2ccc(F)c(F)c2)c2nnn([C@@H]3C[C@H](OCCO)[C@@H](O)[C@H]3O)c2n1"
unit_of_measure = "%"
experimental_result = 5

[[record]]
chemical_structure = "Cc1c[nH]c2nccc(Oc3c(F)cc(Nc4cc(Cl)nc(N)n4)cc3F)c12"
unit_of_measure = "%"
experimental_result = 19

[[record]]
chemical_structure = "COc1ccc(-c2ccc3ncc4c(c3c2)n(-c2ccc(N3CCNCC3)c(C(F)(F)F)c2)c(=O)n4C)cn1.O=C(O)/C=C\\C(=O)O"
unit_of_measure = "%"
experimental_result = 50


Consider now this further compound.
For the compound `CC(C)OC(=O)N1CCC(Oc2ncnc3c2cnn3-c2ccc(S(C)(=O)=O)cc2F)CC1` , give its reported Population Pyknosed Nuclei (%). 9

====

Test system: HEK-293T
Measurement Description: Multiplex assay against HEK293T
Format: toxicity, cell-based
Assay Conditions: human, 48 h, 1 µM, compound concentration 1 uM, replicate 2
I'd appreciate it if you could supply Population Hoechst High Intensity Objects (%) values for the items below.
Give me the value, and tack the unit on after it.

Reference set (5 entries):
[[record]]
molecule = "CC(C)NC(=O)N1CC[C@H](NC2=Nc3cc(F)ccc3N(CC(F)F)c3ccc(Cl)cc32)C1"
experimental_result = "3%"

[[record]]
molecule = "C[C@]12CC[C@@H]3c4ccc(O)cc4CC[C@H]3[C@@H]1CC[C@@H]2O [ESTRADIOL]"
experimental_result = "3%"

[[record]]
molecule = "COc1cc(Nc2nccc(-c3cnn4nc(OC)ccc34)n2)cc(C(F)(F)F)c1"
experimental_result = "3%"

[[record]]
molecule = "COc1ccccc1CN[C@H]1C2CCN(CC2)[C@H]1C(c1ccccc1)c1ccccc1 [CP-96345]"
experimental_result = "2%"

[[record]]
molecule = "Cc1cccc(CN2CCN(C(c3ccccc3)c3ccc(Cl)cc3)CC2)c1.Cl.Cl (centres undefined)"
experimental_result = "4%"


Record Population Hoechst High Intensity Objects (%) for all entries; do not skip any.
1. CC(C)OC(=O)N1CCC(Oc2ncnc3c2cnn3-c2ccc(S(C)(=O)=O)cc2F)CC1
2. CC(C)(C)NC[C@H](O)COc1nsnc1N1CCOCC1 [TIMOLOL]
3. Cl.O=C(O)c1cc(-c2ccc(C3CCNCC3)cc2)c2ccc(-c3ccc(C(F)(F)F)cc3)cc2c1
4. CN1CCN(Cc2ccc(Nc3ncc(Cl)c(Nc4ccccc4S(=O)(=O)N(C)C)n3)cc2)CC1 [DUBERMATINIB]

1: 3%; 2: 2%; 3: 2%; 4: 6%

Cited source for all entries: ChEMBL document CHEMBL4689842
